Origin of measurements: ChEMBL document CHEMBL5724562

- System: B cell
- assay-method-text: Cytotoxicity screening of chemical probes in isolated B cell assay. Data is normalized to DMSO control, the cell viability average of replicates are reported. Reduction of ATP level more than 20% indicate compromised cell health status.
- assay-setup: human, 0.1 µM
recorded-endpoint: Cell Viability
Put your answer as a value accompanied by its unit after it.

CN(C)C(=O)Cn1cc(-c2nc([C@@](C)(c3ccc(-c4cnc(N)nc4)cc3)C3CC3)no2)cn1 [BI 665915] :: 103.286%

Input: What value of measured Cell Viability is listed for Nc1c(C(=O)NCc2ccc(C(=O)NCCCC3CCCCC3)cc2)cnn1-c1ccccc1 [SR-318] ?
Output: 97.9561%

Input: What value of measured Cell Viability is listed for Cc1cc(C)c(-n2ccn3nc(-c4cccnc4)cc23)cc1NC(=O)c1cc(C#N)cc(S(F)(F)(F)(F)F)c1 [BAY-826] ?
Output: 99.8561%

Input: What value of measured Cell Viability is listed for O=S(=O)(NC1CCC(c2cc(F)ccc2F)(S(=O)(=O)c2ccc(Cl)cc2)CC1)C(F)(F)F (configuration not stated) [MRK-560] ?
Output: 103.093%

Input: What value of measured Cell Viability is listed for CCCCN(CCCC)C(=O)CN1C[C@H](c2cc(OC)c3c(c2)OCO3)[C@@H](C(=O)O)[C@@H]1CC(C)(C)CCC.Cc1ccc(S(=O)(=O)O)cc1 ?
Output: 100.019%

Input: What value of measured Cell Viability is listed for Cc1cc(Nc2nccc(C)n2)cc(-c2cnc([C@@]3(O)CC[C@H](C(=O)O)C(C)(C)C3)s2)c1 [MRL-SYKi] ?
Output: 97.9587%

Input: What value of measured Cell Viability is listed for COc1cccc(CNC(=O)c2nc3scc(COCc4ccc(C(=O)O)cc4)c3c(=O)[nH]2)c1 [T-26c] ?
Output: 102.037%

---

- System: B cell
- assay-method-text: Cytotoxicity screening of chemical probes in isolated B cell assay. Data is normalized to DMSO control, the cell viability average of replicates are reported. Reduction of ATP level more than 20% indicate compromised cell health status.
- assay-setup: human, 1 µM
// Cell Viability lookup, one value per entry
Put your answer as a value accompanied by its unit after it.

Record excerpt, results attached:
CN(C)C(=O)c1ccc(-c2cc(C(=O)N[C@@H]3CCc4ccccc43)no2)cc1O :: 97.9607%
Cc1c(NC(=O)c2cc(C(N)=O)nc3cc(F)ccc23)c(C(F)(F)F)nn1Cc1ccc(C#N)cc1 :: 101.62%
COc1ccc2c(O[C@@H]3C[C@H]4C(=O)N[C@]5(C(=O)O)CC5/C=C\CCCCC[C@H](NC(=O)OC5CCCC5)C(=O)N4C3)cc(-c3csc(NC(=O)C(C)C)n3)nc2c1C (stereo partly drawn) :: 99.1645%
O=C(NCc1ccc(F)cc1)N1CCN2C(=O)OC(c3ccccc3)(c3ccccc3)C2C1 (stereo not drawn) :: 104.95%
C[C@@H](NC(=O)Nc1cc2[nH]ncc2c(CO)n1)c1ccccc1 :: 88.9841%
COc1cc(C(=O)N2CC[C@@H](O)[C@@H](N)C2)cc2nc(-c3cc4ccccc4n3CC3CC3)n(C)c12.Cl :: 96.5784%
O=C(Nc1cnc(Oc2ccc(F)cc2)nc1)N1CCc2ncccc2[C@@H]1c1ccc(F)cc1 :: 98.9586%

Input: What value of measured Cell Viability is listed for Cc1ccccc1Oc1cc(-n2c(=O)cc(C(F)(F)F)[nH]c2=O)c2ccccc2c1Cl ?
Output: 101.552%
